Cited source: paper PMC8732799

SYSTEM UNDER TEST: CYP2C8 (Homo sapiens)
Sequence (P10632 1-490): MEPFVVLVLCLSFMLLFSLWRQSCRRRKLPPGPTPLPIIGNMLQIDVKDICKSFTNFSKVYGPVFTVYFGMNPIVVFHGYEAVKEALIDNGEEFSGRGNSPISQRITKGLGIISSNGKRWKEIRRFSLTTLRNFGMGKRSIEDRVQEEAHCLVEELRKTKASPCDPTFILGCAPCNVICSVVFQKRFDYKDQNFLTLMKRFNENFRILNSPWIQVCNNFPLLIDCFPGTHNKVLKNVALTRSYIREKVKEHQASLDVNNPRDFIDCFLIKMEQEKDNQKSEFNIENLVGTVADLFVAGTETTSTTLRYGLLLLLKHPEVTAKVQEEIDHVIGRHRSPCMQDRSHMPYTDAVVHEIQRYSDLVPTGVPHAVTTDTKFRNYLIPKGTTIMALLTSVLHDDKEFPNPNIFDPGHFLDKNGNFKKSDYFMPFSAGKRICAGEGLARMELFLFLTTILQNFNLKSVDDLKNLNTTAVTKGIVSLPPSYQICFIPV
ASSAY TEXT: Inhibition of paclitaxel metabolism in human liver microsome fraction: 6α-hydroxypaclitaxel production
RUN PARAMETERS: human, human liver microsomes, pH 7.4, probe paclitaxel (6α-hydroxypaclitaxel formation)
PROPERTY: activity at 140 min, 0.3 µM (%)
Write the value in % as a bare number.

// assay CYP2C8 (Homo sapiens), entry O=c1c(O)c(-c2ccc(O)c(O)c2)oc2cc(O)cc(O)c12 , activity at 140 min, 0.3 µM value = 49
